For each record, write down the corresponding melting point.

Request: Could you share which melting point value was measured for `Cc1cc(C)nc(N2CCN(CC(=O)c3c[nH]c4c([N+](=O)[O-])cccc34)CC2)n1` ?
Result: 165 °C (dec.)

Request: Entry `Cc1cc(C)nc(N2CCN(CC(=O)c3c[nH]c4ccccc34)CC2)n1` : reported melting point = ?
Result: 165 °C (dec.)

Request: What value of melting point has been reported for the following molecule? `Cc1cc(C)nc(N2CCN(CC(=O)c3c[nH]c4c(Cl)cccc34)CC2)n1`
Result: 163 °C (dec.)

Request: Would you mind telling me what melting point value was observed for `COc1cccc2c(C(=O)CN3CCN(c4nc(C)cc(C)n4)CC3)c[nH]c12` ?
Result: 162 °C (dec.)

Where these numbers come from: paper PMC6832257
